biological target: CYP3A4 (Homo sapiens, UniProt P08684); construct: incubated with human liver microsomes (mixed gender, pool of 50 donors, 0.1 mg/mL); from tissue; host or cells: human liver microsomes, pool of 50 donors; experiment: CYP450 inhibition in human liver microsomes, CYP3A4; format: in vitro ADME; details: both sexes, liver microsomes, pH 7.4, probe midazolam, 10 μM, Exp. 2, read-out: CYP3A4 (midazolam hydroxylase) % of control (Exp. 2)
Sequence (P08684 whole entry): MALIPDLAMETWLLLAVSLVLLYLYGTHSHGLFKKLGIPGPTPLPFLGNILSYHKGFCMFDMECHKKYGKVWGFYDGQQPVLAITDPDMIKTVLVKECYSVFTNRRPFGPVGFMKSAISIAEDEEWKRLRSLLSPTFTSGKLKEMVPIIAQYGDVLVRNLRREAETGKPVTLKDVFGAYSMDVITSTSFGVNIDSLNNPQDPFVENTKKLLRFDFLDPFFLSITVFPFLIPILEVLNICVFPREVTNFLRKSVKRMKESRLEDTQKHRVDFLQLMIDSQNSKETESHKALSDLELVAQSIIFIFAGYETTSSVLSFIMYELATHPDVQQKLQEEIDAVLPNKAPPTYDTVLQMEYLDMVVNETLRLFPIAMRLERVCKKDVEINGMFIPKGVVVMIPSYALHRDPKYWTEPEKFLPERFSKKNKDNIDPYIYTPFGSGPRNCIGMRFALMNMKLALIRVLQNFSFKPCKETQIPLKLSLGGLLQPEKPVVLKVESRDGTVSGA
QUANTITY_NAME: activity at 10 µM (%)
Answers are plain numbers, in %.

Give CYP3A4 (Homo sapiens, UniProt P08684) activity at 10 µM for COc1ccc2ncc(F)c(CC[C@@]3(O)CO[C@@H]4[C@@H](NCc5cc6c(cn5)OCCO6)CO[C@@H]43)c2n1 82.3
